# reported pEC50; entries follow
Molecular target: full-length beta-Catenin (Uniprot ID P35222) (Homo sapiens (Human)) (UniProt P35222)
Experiment: fluorescence polarization competition; full-length beta-catenin, competitor 5FAM-TCF4(10-53) probe
Starred links: 1 amine or outer side, 2 acyl side, 3 side chain; linkers in the order of their positions; H or OH if unused. Positions of bridges follow the written chain, without caps; N, C: chain ends. Non-standard residues stand in square brackets, D forms with d. Primed or numbered codes have the meaning given here. No end group written: not given here. *: point of attachment. PyrS2″ = (S)-3-amino-1-((pent-4-en-1-yloxy)carbonyl)pyrrolidine-3-carboxylic acid (stapling residue), C=CCCCOC(=O)N1CC[C@@](N[*:1])(C(=O)[*:2])C1; B5(4) = 2,2-bis(4-pentenyl)glycine = 2-amino-2-(pent-4-en-1-yl)hept-6-enoic acid (stitching residue), C=CCCCC(CCCC=C)(N[*:1])C(=O)[*:2]; B5(5) = 2,2-bis(4-pentenyl)glycine, 2-amino-2-(pent-4-en-1-yl)hept-6-enoic acid (stitching residue), C=CCCCC(CCCC=C)(N[*:1])C(=O)[*:2]; TfeGA = (S)-2-amino-3-((carboxymethyl)(2,2,2-trifluoroethyl)amino)propanoic acid, O=C([C@H](CN(CC(=O)[*:3])CC(F)(F)F)N[*:1])[*:2]; PyrS2 = (S)-3-amino-1-((pent-4-en-1-yloxy)carbonyl)pyrrolidine-3-carboxylic acid, C=CCCCOC(=O)N1CC[C@@](N[*:1])(C(=O)[*:2])C1; PyrS3 = (S)-3-amino-1-((hex-5-en-1-yloxy)carbonyl)pyrrolidine-3-carboxylic acid, C=CCCCCOC(=O)N1CC[C@@](N[*:1])(C(=O)[*:2])C1; SeN = (S)-5-(((allyloxy)carbonyl)(methyl)amino)-2-amino-2-methylpentanoic acid, C=CCOC(=O)N(C)CCC[C@](C)(N[*:1])C(=O)[*:2]; B5(7) = 2-amino-2-(pent-4-en-1-yl)hept-6-enoic acid, two olefinic side chains, C=CCCCC(CCCC=C)(N[*:1])C(=O)[*:2]; B5(13) = 2-amino-2-(pent-4-en-1-yl)hept-6-enoic acid (two alkene chains), C=CCCCC(CCCC=C)(N[*:1])C(=O)[*:2]; B5(3) = 2,2-bis(4-pentenyl)glycine (stitching residue), C=CCCCC(CCCC=C)(N[*:1])C(=O)[*:2]; Phe(3-COOH) = N[C@@H](Cc1cccc(C(=O)O)c1)C(=O)O; Phe(2-Cl) = N[C@@H](Cc1ccccc1Cl)C(=O)O; Bta = N[C@@H](Cc1csc2ccccc12)C(=O)O; αAllylPro = C=CC[C@@]1(C(=O)O)CCCN1; Azidoacetyl = [N-]=[N+]=NCC(=O)*; tBuAla = CC(C)(C)C[C@H](N)C(=O)O; 2Thi = N[C@@H](Cc1cccs1)C(=O)O; 3Thi = N[C@@H](Cc1ccsc1)C(=O)O; Thr(ol) = C[C@@H](O)[C@H](N)CO
// field semantics: pEC50 = negative decimal log of concentration (mol/L)

Previously resolved entries follow.
{"Binder": "Ac-[αAllylPro]D[tBuAla][B5(13)]DDAAFN[PyrS3][3Thi][Bta]H-NH2 (staple 1-4, 4-11) [I-775]", "Result value": 8.15}
{"Binder": "[αAllylPro]D[tBuAla][B5(4)]D[Phe(3-COOH)]AAFF[PyrS2″][Phe(2-Cl)][Bta]Q-NH2 (staple 1-4; staple 4-11 (inferred)) [I-1338]", "Result value": 8.00}
{"Binder": "Ac-[αAllylPro]D[tBuAla][B5(3)]DEAAFL[PyrS2″][Phe(2-Cl)][Bta]T-NH2 (staple 1-4, 4-11; also: staple stereoisomer: later eluting HPLC peak) [I-1071]", "Result value": 5.90}
{"Binder": "Ac-[αAllylPro]D[tBuAla][B5(13)]DDAAFN[PyrS2][2Thi][Bta]H-NH2 (staple 1-4, 4-11) [I-779]", "Result value": 8.30}

INPUT: For the binder Ac-[αAllylPro]D[tBuAla][B5(7)]DDAAFQ[PyrS2][3Thi][Bta]H-NH2 (staple 1-4, 4-11; also: earlier-eluting staple isomer) [I-771] , report pEC50.
OUTPUT: 8.30

INPUT: For the binder Ac-[αAllylPro]D[tBuAla][B5(13)]DDAAFN[SeN][3Thi][Bta]H-NH2 (staple 1-4, 4-11) [I-774] , report pEC50.
OUTPUT: 7.42

INPUT: For the binder Azidoacetyl-[αAllylPro]D[tBuAla][B5(5)][3Thi][TfeGA]AAFN[PyrS2]D[Bta]Q-NH2 (staple 1-4, 4-11; also: staple isomer unspecified: later eluting HPLC peak) [I-1057] , report pEC50.
OUTPUT: 5.18

INPUT: For the binder [αAllylPro]D[tBuAla][B5(4)]D[Phe(3-COOH)]AAFF[PyrS2″][Phe(2-Cl)][Bta][Thr(ol)] (staple 1-4; staple 4-11 (inferred)) [I-1340] , report pEC50.
OUTPUT: 6.80
